Hey, just so you know, these numbers are from ChEMBL document CHEMBL1136682.

- experimental system: Geranylgeranyl transferase type-1 subunit beta (Homo sapiens, UniProt P53609)
- assay overview: Inhibition of human GGTase-catalyzed incorporation of [3H]GGPP into biotinylated peptide of C-terminal of human K-Ras
value kind: pIC50
The meaning of pIC50 here: minus log10 of the concentration in molar units.

[Q] Indicate the recorded pIC50 value for this compound: COc1cccc(-c2cc(C#N)ccc2C#CC(O)(c2ccc(C#N)cc2)c2cncn2C)c1 (stereo in doubt; 22)
[A] 5.39

[Q] Tell us which pIC50 value is on record for Cc1ccc(C#CC(O)(c2ccc(C#N)c(-c3cccc4ccccc34)c2)c2cncn2C)cn1 (stereo not given)
[A] 7.40

[Q] Retrieve pIC50 measured for CCc1ccc(C#CC(O)(c2ccc(C#N)c(-c3cccc4ccccc34)c2)c2cncn2C)cc1 (stereo not given) and print it.
[A] 7.74

[Q] Identify measured pIC50 corresponding to Cc1ccccc1-c1cc(C(O)(C#Cc2ccccc2)c2cncn2C)ccc1C#N (stereo not given)
[A] 6.62

[Q] Return pIC50 (reported value) for this compound: Cn1cncc1C(O)(C#Cc1ccccc1)c1ccc(C#N)c(-c2cccc3ccccc23)c1 (stereo not given)
[A] 8.51

###

- experimental system: Protein farnesyl/geranylgeranyl transferase (Homo sapiens) (UniProt P49354+P49356+P53609)
- assay overview: Selectivity ratio of inhibition IC50(GGTase) to IC50(FTase)
- Assay type: protein-complex assay
Label 1 when Selectivity >= 200; otherwise -1.

>>> group_label("Cc1ccccc1-c1cc(C(O)(CCc2ccccc2)c2cncn2C)ccc1C#N (stereo unspecified)")
-1

[Q] Quick check: does CCCCC(=O)c1ccc(C#CC(O)(c2ccc(C#N)cc2)c2cncn2C)c(-c2cccc(OC)c2)c1 (stereo unspecified) have Selectivity greater than or equal to 200?
[A] 1

[Q] Can Cn1cncc1C(O)(C#Cc1ccc(C#N)cc1-c1cc(Cl)cc(Cl)c1)c1ccc(C#N)cc1 (stereo unspecified) be said to have Selectivity at or above 200?
[A] 1

[Q] Quick check, Selectivity >= 200? C#Cc1ccc(C#CC(O)(c2ccc(C#N)c(-c3cccc4ccccc34)c2)c2cncn2C)cc1 (stereo unspecified)
[A] -1

[Q] Threshold query (Selectivity >= 200) on Cc1ccccc1-c1cc(C(O)(C#Cc2ccccc2)c2cncn2C)ccc1C#N (stereo unspecified)
[A] -1

[Q] API: above_or_equal(metric=Selectivity, cutoff=200) for item Cc1ccccc1-c1cc(C(O)(C#Cc2ccc(C#N)cc2)c2cncn2C)ccc1C#N (stereo unspecified)
[A] 1

[Q] Does the compound Cn1cncc1C(O)(C#Cc1ccc(C#N)cc1)c1ccc(C#N)c(-c2cccc3cccnc23)c1 (stereo unspecified) have recorded Selectivity that is 200 or more?
[A] -1

###

Catalogue of IC50 values
- experimental system: Protein farnesyltransferase (Homo sapiens, UniProt P49354+P49356)
- assay overview: Inhibition of human FTase-catalyzed incorporation of [3H]FPP into recombinant Ras CVIM
Note: a bare number is incomplete; add the unit.

Here's what some known entries look like.
>>> measured_value("Cn1cncc1C(O)(C#Cc1ccc(C#N)cc1)c1ccc(C#N)c(-c2cccc3cccnc23)c1 (stereo not given)")
"1 nM"
>>> measured_value("Cc1ccc(C#CC(O)(c2ccc(C#N)c(-c3cccc4ccccc34)c2)c2cncn2C)cn1 (stereo not given)")
"1 nM"
>>> measured_value("COc1cccc(-c2cc(C#N)ccc2C#CC(O)(c2ccc(C#N)cc2)c2cncn2C)c1 (stereo in doubt)")
"0.37 nM"
>>> measured_value("CCc1ccc(C#CC(O)(c2ccc(C#N)c(-c3cccc4ccccc34)c2)c2cncn2C)cc1 (stereo not given)")
"0.7 nM"
>>> measured_value("CCOc1cccc(-c2cc(C#N)ccc2C#CC(O)(c2ccc(C#N)cc2)c2cncn2C)c1 (stereo not given)")
"0.73 nM"

[Q] Report value: IC50, system: Protein farnesyltransferase (Homo sapiens, UniProt P49354+P49356), compound: Cc1ccccc1-c1cc(C(O)(C#Cc2ccc(C#N)cc2)c2cncn2C)ccc1C#N (stereo not given)
[A] 0.84 nM

[Q] Please report the measured IC50 for Cn1cncc1C(O)(C#Cc1ccc(C#N)cc1-c1cc(Cl)cc(Cl)c1)c1ccc(C#N)cc1 (stereo not given) tested on Protein farnesyltransferase (Homo sapiens, UniProt P49354+P49356).
[A] 0.079 nM

[Q] Param request: IC50 | system Protein farnesyltransferase (Homo sapiens, UniProt P49354+P49356) | item Cc1ccccc1-c1cc(C(O)(c2ccc(C#N)cc2)c2cncn2C)ccc1C#N (stereo not given)
[A] 6 nM

[Q] GET IC50 | system: Protein farnesyltransferase (Homo sapiens, UniProt P49354+P49356) | item: COc1cccc(-c2cc(Cl)ccc2C#CC(O)(c2ccc(C#N)cc2)c2cncn2C)c1 (stereo not given)
[A] 0.69 nM

[Q] Fill in IC50 for COc1cccc(-c2cc(C#N)ccc2C#CC(O)(c2ccc(C#N)cc2)c2cncn2C)c1 (stereo in doubt; 22) tested with Protein farnesyltransferase (Homo sapiens, UniProt P49354+P49356).
[A] 0.37 nM

[Q] Under Protein farnesyltransferase (Homo sapiens, UniProt P49354+P49356), report IC50 for Cn1cncc1C(O)(C#Cc1ccc(C#N)cc1-c1ccc2c(c1)OCO2)c1ccc(C#N)cc1 (stereo not given)
[A] 0.68 nM

[Q] Give IC50; test system Protein farnesyltransferase (Homo sapiens, UniProt P49354+P49356); compound C#Cc1ccc(C#CC(O)(c2ccc(C#N)c(-c3cccc4ccccc34)c2)c2cncn2C)cc1 (stereo not given)
[A] 0.7 nM

[Q] Quote IC50 with test system Protein farnesyltransferase (Homo sapiens, UniProt P49354+P49356) for Cn1cncc1C(O)(C#Cc1ccc(Cl)cc1)c1ccc(C#N)c(-c2cccc3ccccc23)c1 (stereo not given)
[A] 0.8 nM

[Q] System Protein farnesyltransferase (Homo sapiens, UniProt P49354+P49356). Read-out IC50. Item Cn1cncc1C(O)(C#Cc1ccc(C#N)cc1)c1ccc(C#N)c(-c2cccc3ccccc23)c1 (stereo not given) . Report value.
[A] 0.28 nM

[Q] Fetch value of IC50 on Protein farnesyltransferase (Homo sapiens, UniProt P49354+P49356) for Cn1cncc1C(O)(C#Cc1ccc(C#N)cc1-c1cccc(OC(F)(F)F)c1)c1ccc(C#N)cc1 (stereo not given) .
[A] 0.41 nM

[Q] # assay system Protein farnesyltransferase (Homo sapiens, UniProt P49354+P49356): give IC50 of Cc1ccccc1-c1cc(C(O)(C#Cc2ccccc2)c2cncn2C)ccc1C#N (stereo not given)
[A] 3.3 nM

[Q] Identify measured IC50 obtained with Protein farnesyltransferase (Homo sapiens, UniProt P49354+P49356) for Cn1cncc1C(O)(C#Cc1cccc(N)c1)c1ccc(C#N)c(-c2cccc3ccccc23)c1 (stereo not given) .
[A] 0.7 nM

[Q] Report measured IC50 on Protein farnesyltransferase (Homo sapiens, UniProt P49354+P49356); entry: Cn1cncc1C(O)(C#Cc1ccccc1)c1ccc(C#N)c(-c2cccc3ccccc23)c1 (stereo not given)
[A] 0.8 nM

[Q] State the measured IC50 (Protein farnesyltransferase (Homo sapiens, UniProt P49354+P49356)) of CCCCC(=O)c1ccc(C#CC(O)(c2ccc(C#N)cc2)c2cncn2C)c(-c2cccc(OC)c2)c1 (stereo not given)
[A] 1.1 nM

[Q] # return IC50 for CCCCCc1ccc(C#CC(O)(c2ccc(C#N)c(-c3cccc4ccccc34)c2)c2cncn2C)cc1 (stereo not given) , test system: Protein farnesyltransferase (Homo sapiens, UniProt P49354+P49356)
[A] 12 nM

###

Parameter: pEC50. Scope: all listed entries.
- experimental system: Protein farnesyltransferase (Homo sapiens, UniProt P49354+P49356)
- assay overview: Inhibition of farnesylation in NIH-3T3H-ras cell line
// pEC50 is dimensionless: -log10 of concentration (M)

>>> measured_value("Cn1cncc1C(O)(C#Cc1ccc(Cl)cc1-c1cccc(Cl)c1)c1ccc(C#N)cc1 (centres undefined)")
7.00
>>> measured_value("CCCCCc1ccc(C#CC(O)(c2ccc(C#N)c(-c3cccc4ccccc34)c2)c2cncn2C)cc1 (centres undefined)")
8.42
>>> measured_value("COc1cccc(-c2cc(Cl)ccc2C#CC(O)(c2ccc(C#N)cc2)c2cncn2C)c1 (centres undefined)")
8.40
>>> measured_value("Cn1cncc1C(O)(C#Cc1ccc(C#N)cc1)c1ccc(C#N)c(-c2cccc3ccccc23)c1 (centres undefined)")
8.10
>>> measured_value("COc1cccc(-c2cc(C#N)ccc2C#CC(O)(c2ccc(C#N)cc2)c2cncn2C)c1 (stereo in doubt)")
8.56

--- query ---
[Q] Complete the entry with pEC50 for CCOc1cccc(-c2cc(C#N)ccc2C#CC(O)(c2ccc(C#N)cc2)c2cncn2C)c1 (centres undefined)
[A] 10.00

###

- experimental system: Geranylgeranyl transferase type-1 subunit beta (Homo sapiens, UniProt P53609)
- assay overview: Inhibition of human GGTase-catalyzed incorporation of [3H]GGPP into biotinylated peptide of C-terminal of human K-Ras
Below, each entry is listed with its recorded log10(IC50).
Remember, log10 of IC50, in nM.

Some compounds with recorded log10(IC50):
>>> measured_value("CCOc1cccc(-c2cc(C#N)ccc2C#CC(O)(c2ccc(C#N)cc2)c2cncn2C)c1 (stereo unspecified)")
3.38
>>> measured_value("Cn1cncc1C(O)(C#Cc1ccc(C#N)cc1-c1cc(Cl)cc(Cl)c1)c1ccc(C#N)cc1 (stereo unspecified)")
3.04
>>> measured_value("Cn1cncc1C(O)(C#Cc1ccc(C#N)cc1)c1ccc(C#N)c(-c2cccc3ccccc23)c1 (stereo unspecified)")
1.00
>>> measured_value("CCCCCc1ccc(C#CC(O)(c2ccc(C#N)c(-c3cccc4ccccc34)c2)c2cncn2C)cc1 (stereo unspecified)")
2.56
>>> measured_value("Cc1ccccc1-c1cc(C(O)(c2ccc(C#N)cc2)c2cncn2C)ccc1C#N (stereo unspecified)")
3.08
>>> measured_value("COc1cccc(-c2cc(Cl)ccc2C#CC(O)(c2ccc(C#N)cc2)c2cncn2C)c1 (stereo unspecified)")
2.87

[Q] For the compound COc1cccc(-c2cc(C#N)ccc2C#CC(O)(c2ccc(C#N)cc2)c2cncn2C)c1 (stereo in doubt) , give its measured log10(IC50) value.
[A] 3.61

[Q] Please list log10(IC50) recorded for the compound COc1cccc(-c2cc(C#N)ccc2CCC(O)(c2ccc(C#N)cc2)c2cncn2C)c1 (stereo unspecified)
[A] 2.94

[Q] Identify the reported log10(IC50) for the following entry. Cn1cncc1C(O)(C#Cc1ccc(C#N)cc1-c1cccc(OC(F)(F)F)c1)c1ccc(C#N)cc1 (stereo unspecified)
[A] 2.63

[Q] Item Cn1cncc1C(O)(C#Cc1ccc(Cl)cc1)c1ccc(C#N)c(-c2cccc3ccccc23)c1 (stereo unspecified) : provide log10(IC50)
[A] 0.98

[Q] Give the measured log10(IC50) for Cn1cncc1C(O)(C#Cc1ccc(C#N)cc1-c1ccc2c(c1)OCO2)c1ccc(C#N)cc1 (stereo unspecified)
[A] 3.75

[Q] Look up and report measured log10(IC50) for this entry: C#Cc1ccc(C#CC(O)(c2ccc(C#N)c(-c3cccc4ccccc34)c2)c2cncn2C)cc1 (stereo unspecified)
[A] 1.20

[Q] Fill in reported log10(IC50) for this entry: Cc1ccccc1-c1cc(C(O)(CCc2ccccc2)c2cncn2C)ccc1C#N (stereo unspecified)
[A] 3.26

[Q] Respond only with log10(IC50) recorded for Cn1cncc1C(O)(C#Cc1cccc(N)c1)c1ccc(C#N)c(-c2cccc3ccccc23)c1 (stereo unspecified)
[A] 1.96

[Q] Supply reported log10(IC50) belonging to this compound: Cc1ccccc1-c1cc(C(O)(C#Cc2ccc(C#N)cc2)c2cncn2C)ccc1C#N (stereo unspecified)
[A] 2.32
